molecular target: T1, human ROR1 (full-length, on the cell surface) (human, UniProt Q01973 30-937); assay: flow cytometry, Ba/F3-ROR1 cells
T1 construct: whole, on cells; the tumour cell lines carry their own ROR1; also called Ba/F3-ROR1 cells; Jeko-1
T1 sequence (Q01973 30-937): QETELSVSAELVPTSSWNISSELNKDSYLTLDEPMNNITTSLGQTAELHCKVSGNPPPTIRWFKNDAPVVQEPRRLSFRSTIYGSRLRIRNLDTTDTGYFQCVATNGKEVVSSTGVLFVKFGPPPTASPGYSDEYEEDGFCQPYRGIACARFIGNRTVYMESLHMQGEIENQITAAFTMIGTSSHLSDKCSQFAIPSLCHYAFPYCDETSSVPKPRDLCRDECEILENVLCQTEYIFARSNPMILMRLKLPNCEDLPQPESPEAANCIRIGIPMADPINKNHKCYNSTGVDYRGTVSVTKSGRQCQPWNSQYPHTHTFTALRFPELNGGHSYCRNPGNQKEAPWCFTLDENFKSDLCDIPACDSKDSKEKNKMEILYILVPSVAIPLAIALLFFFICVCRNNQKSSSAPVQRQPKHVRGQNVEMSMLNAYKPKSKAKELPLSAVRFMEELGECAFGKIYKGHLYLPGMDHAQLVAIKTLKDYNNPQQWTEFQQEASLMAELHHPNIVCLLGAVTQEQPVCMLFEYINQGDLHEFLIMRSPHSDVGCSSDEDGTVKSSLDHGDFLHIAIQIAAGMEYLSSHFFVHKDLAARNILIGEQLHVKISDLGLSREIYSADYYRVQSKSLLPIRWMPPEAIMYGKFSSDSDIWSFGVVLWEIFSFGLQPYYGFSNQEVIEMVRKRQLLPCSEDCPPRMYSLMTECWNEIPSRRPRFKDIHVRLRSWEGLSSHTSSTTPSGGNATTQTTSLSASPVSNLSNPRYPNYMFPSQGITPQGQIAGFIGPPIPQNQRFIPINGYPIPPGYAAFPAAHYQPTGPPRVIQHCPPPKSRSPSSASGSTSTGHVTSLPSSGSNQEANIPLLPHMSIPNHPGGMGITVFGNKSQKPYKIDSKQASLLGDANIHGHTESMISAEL
measuredMetric: EC50 (nM)
Value expressed in nM; do not type the unit.

Exam item: Bench note: what EC50 did 19F6-Hu34 (antibody, human IgG1, kappa, V domains shown, humanized, human IgG1 / kappa) VH: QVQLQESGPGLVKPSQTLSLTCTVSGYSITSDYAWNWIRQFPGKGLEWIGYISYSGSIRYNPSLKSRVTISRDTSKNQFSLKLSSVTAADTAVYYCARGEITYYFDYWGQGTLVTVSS VL: DIQMTQSPSSLSASVGDRVTITCQTSTDIDDDLNWYQQKPGKPPKLLISEGNTLETGVPSRFSGSGSGTDFTFTISSLQPEDIADYYCLQSNDLPLTFGAGTKLEIKR show?
Marked response: 0.53
